# Test system: MDA-MB-435 melanoma
# assay.remarks: NCI-60 one-dose screen, 48 h (100 = growth as untreated, 0 = no growth, -100 = all killed)
# condition.notes: 10 µM
About 83,000 compounds went through this panel and 20% of them were active in at least one assay; those are over-represented in the sample as a whole.
# binarize growth: threshold 40% inclusive, high side label 1, low side label 0

Example cases with answers are listed next.
molecule=COc1ccc2cc(-c3nc4ccccc4s3)c(Cl)nc2c1OC class_name="label 1"
molecule="Cc1ccc(C(=O)C2C(=O)C3CCC2C3)cc1 (centres undefined)" class_name="label 1"
molecule=O=C(CCCNC(=O)c1nc(-c2ccccc2)n(-c2ccccc2)n1)NO class_name="label 1"
molecule=O=C(COc1cccc(/C=C2\CSc3ccc(Cl)cc3C2=O)c1)c1ccc(Cl)cc1 class_name="label 1"

Determine whether measured growth meets or exceeds 40% for `O=C(CCCSc1nc(-c2ccc(Cl)cc2)cc(-c2ccc(Cl)cc2)n1)NO`
label 0

Does growth meet or surpass 40% for `CC(C)C1=C(O)C2=C(C(=O)C1=O)[C@@]1(C)CCCC(C)(C)[C@@H]1CC2` ?
label 1

Decide: growth of `COc1cc(-c2nn(-c3cccc(NC(=O)NCCNS(=O)(=O)c4ccc(Cl)cc4)c3)cc2-c2ccncc2)ccc1Cl` >= 40%?
label 0

Reported growth reaches at least 40% for COC(=O)C1OC1c1cc([N+](=O)[O-])ccc1OC (centres undefined) ?
label 1

For this molecule, is measured growth 40% or higher? `O=C1c2ccccc2C(=O)c2c1ccc(C(Br)Br)c2[N+](=O)[O-]`
label 1

growth >= 40% for `Nc1ccc(/C=N/Nc2ccnc3c(O)cccc23)c2cccnc12` ?
label 1

Identify whether the reported growth of the following molecule is 40% or greater: `Cc1ccc(S(=O)(=O)N/N=C2\CCCc3ccccc32)cc1`
label 1

Answer whether growth of Clc1ccc(/C=C2\CCCC3C2=Nc2ccccc2NC3c2ccc(Cl)cc2)cc1 (centres undefined) is greater than or equal to 40%.
label 0

For this molecule, is measured growth 40% or higher? `O=C(CN1CCN(C(=O)c2ccccc2)CC1)Nc1ccccc1SCc1ccccc1`
label 1

Given CCN(CC)CCCC(C)Nc1c2ccc(Cl)cc2nc2ccc(OC)cc12 (centres undefined) , state whether its growth is at least 40%.
label 0

Determine whether measured growth meets or exceeds 40% for CC(=O)[C@@]12O[C@](C)(c3ccccc3)O[C@@H]1CC1C3CCC4=CC(=O)CC[C@]4(C)C3CC[C@@]12C (some centres undefined)
label 1

For this molecule, is measured growth 40% or higher? CC1/C=C/C=C/C=C/C=C/C=C/C=C/C=C/C(O[C@@H]2O[C@H](C)[C@H](O)[C@@H](O)[C@@H]2N)CC(O)C(C(=O)O)C(O)CC(=O)CC(O)CC(O)CC(O)CC(=O)CCCC(=O)CC(=O)OC1C(C)CC(C)C(O)CC(=O)c1ccc(N)cc1 (some centres undefined)
label 0

Is it the case that `COc1cc(-c2csc(NC(=O)Nc3ccc(Cl)c(C(F)(F)F)c3)n2)cc(OC)c1OC` has growth reaching or exceeding 40%?
label 0

Check if growth >= 40% (inclusive). Item: `CS(=O)(=O)c1nccc(-c2c(-c3cccc(OCCN4CCOCC4)c3)nc3sccn23)n1`
label 1
